# System: murine BM-DCs
# test: Cytokine and chemokine secretion by murine bone marrow-derived DCs (ELISA)
# Format: cell-based, mouse
# experimental.context: peptides 200 μg/ml, HMGB1-Bx 50 μg/ml, polymyxin B, 48 h
# Procedure: Bone marrow-derived DCs (BM-DC) were generated using modifications of the original method described by Inaba et al (42). […] At day 7 of culture, immature DCs were either left untreated, or were stimulated with indicated doses of HMGB1-Bx, HMGB1 peptides, or LPS (E. coli serotype 026:B6, Sigma). In all experiments, DCs were analyzed 48 h after stimulation. […]
No end group written: not given here. *: point of attachment. Biotin = O=C1N[C@H]2[C@H](CS[C@H]2CCCCC(=O)*)N1
measurement.kind: secretion of IL-12 (p70)

[[record]]
seq_text = "YAFFVQTCREEHKKKHPD (Biotin-YAFFVQTCREEHKKKHPD; listed as Homo sapiens) [Hp-16]"
study_target = "murine BM-DCs"
measurement_kind = "secretion of IL-12 (p70)"
result = "enhanced secretion"

[[record]]
seq_text = "CSEYRPKIKGEHPGLSIG [Hp-106] (Biotin-CSEYRPKIKGEHPGLSIG; listed as Homo sapiens)"
study_target = "murine BM-DCs"
measurement_kind = "secretion of IL-12 (p70)"
result = "enhanced secretion"

